experiment: qHTS assay for small molecule antagonists of peroxisome proliferator-activated receptor delta signaling (AID 588535); settings: HEK293T PPARd-UAS-bla, beta-lactamase FRET ratio, 18 h; 460 nm channel;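 also: cells co-treated with a PPAR-delta agonist as stimulator during compound exposure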
Inconclusive results are not listed.
# Lookup of reported max response keyed by entry

[
  {
    "compound": "CCCCCCCCCCCCC1CO1 (configuration not stated)",
    "units label": "%",
    "max response": -13.1
  },
  {
    "compound": "O=C(O)c1ccccc1C(=O)O",
    "units label": "%",
    "max response": 14.7
  },
  {
    "compound": "C(=C/c1ccccc1)/c1ccccc1",
    "units label": "%",
    "max response": 11.7
  },
  {
    "compound": "Cc1ccc(S(=O)(=O)NC2CCCCC2)cc1",
    "units label": "%",
    "max response": 42.4
  },
  {
    "compound": "CC(C=O)Cc1ccc(C(C)(C)C)cc1 (configuration not stated)",
    "units label": "%",
    "max response": 41.6
  },
  {
    "compound": "CCCCC(CC)CO (configuration not stated)",
    "units label": "%",
    "max response": -4.39
  },
  {
    "compound": "C=C(C)C(=O)OCC(C)O (configuration not stated)",
    "units label": "%",
    "max response": 24.5
  },
  {
    "compound": "CCC(C)=O",
    "units label": "%",
    "max response": -36.3
  },
  {
    "compound": "O=C1C=CCCC1",
    "units label": "%",
    "max response": -11
  },
  {
    "compound": "Cc1ccc2ncccc2c1",
    "units label": "%",
    "max response": 20.6
  },
  {
    "compound": "CN(C)c1cccc(O)c1",
    "units label": "%",
    "max response": -10
  },
  {
    "compound": "C=CCOC(=O)COCCC(C)C",
    "units label": "%",
    "max response": 79.8
  },
  {
    "compound": "CCCCCNCCCCC",
    "units label": "%",
    "max response": -18.6
  },
  {
    "compound": "CC/C=C/C#N",
    "units label": "%",
    "max response": 12.5
  },
  {
    "compound": "CC(=O)Nc1ccccc1C",
    "units label": "%",
    "max response": 8.94
  },
  {
    "compound": "CC(N)CN (configuration not stated)",
    "units label": "%",
    "max response": 4.9
  },
  {
    "compound": "O=C1NC(=O)c2cc([N+](=O)[O-])ccc21",
    "units label": "%",
    "max response": -20.7
  },
  {
    "compound": "COCCOC(=O)c1ccccc1C(=O)OCCOC",
    "units label": "%",
    "max response": -2.63
  },
  {
    "compound": "Cc1ccc(C(C)(C)C)cc1",
    "units label": "%",
    "max response": -8.71
  },
  {
    "compound": "O=C(O)c1ccc(Cl)c(Cl)c1",
    "units label": "%",
    "max response": 20.7
  },
  {
    "compound": "CCCCC(CC)CNCC(CC)CCCC (configuration not stated)",
    "units label": "%",
    "max response": 11.3
  },
  {
    "compound": "O=C(Cl)c1c(Cl)cccc1Cl",
    "units label": "%",
    "max response": -5.79
  },
  {
    "compound": "CCCC(Cl)CCCC(Cl)CCC(Cl)CCC(Cl)CCC(Cl)CCCC(Cl)CCC (configuration not stated)",
    "units label": "%",
    "max response": -30.6
  },
  {
    "compound": "Cc1ccc(Cl)cc1",
    "units label": "%",
    "max response": -18
  },
  {
    "compound": "CCC(=O)/C=C/C1C(C)=CCCC1(C)C (configuration not stated)",
    "units label": "%",
    "max response": 2.01
  },
  {
    "compound": "Cc1c(N)cccc1[N+](=O)[O-]",
    "units label": "%",
    "max response": -31.1
  },
  {
    "compound": "CN(C)CCCNCCCN",
    "units label": "%",
    "max response": -8.47
  },
  {
    "compound": "Nc1ccccc1S(=O)(=O)O",
    "units label": "%",
    "max response": -23.8
  },
  {
    "compound": "COC(=O)CCC(=O)OC",
    "units label": "%",
    "max response": -38.8
  },
  {
    "compound": "CC(C)=CCl",
    "units label": "%",
    "max response": 6.55
  },
  {
    "compound": "O=C(Cl)c1cccc([N+](=O)[O-])c1",
    "units label": "%",
    "max response": 33.5
  },
  {
    "compound": "N#Cc1ccccc1",
    "units label": "%",
    "max response": -16.3
  },
  {
    "compound": "CC(=O)Nc1cccc(N)c1",
    "units label": "%",
    "max response": 38.5
  },
  {
    "compound": "O=C(O)c1cccc(Cl)c1Cl",
    "units label": "%",
    "max response": 5.12
  },
  {
    "compound": "O=C1OC(=O)c2cc([N+](=O)[O-])ccc21",
    "units label": "%",
    "max response": 9.55
  },
  {
    "compound": "Cc1cccc(C(=O)O)c1",
    "units label": "%",
    "max response": -5.23
  },
  {
    "compound": "BrC(Br)C(Br)Br",
    "units label": "%",
    "max response": -3.11
  },
  {
    "compound": "Cc1ccc(C#N)cc1",
    "units label": "%",
    "max response": -7.41
  },
  {
    "compound": "CC1CCCO1 (configuration not stated)",
    "units label": "%",
    "max response": 6.05
  },
  {
    "compound": "O=Cc1cccc(Br)c1",
    "units label": "%",
    "max response": 21.9
  },
  {
    "compound": "C[C@@H]1O[C@@H](O[C@@H]2[C@@H](O)[C@H](OCCc3ccc(O)c(O)c3)O[C@H](CO[C@@H]3O[C@H](CO)[C@@H](O)[C@H](O)[C@H]3O)[C@H]2OC(=O)/C=C/c2ccc(O)c(O)c2)[C@H](O)[C@H](O)[C@H]1O",
    "units label": "%",
    "max response": 20.8
  },
  {
    "compound": "O=C1CCCCC1",
    "units label": "%",
    "max response": 1.87
  }
]
